- SYSTEM_UNDER_TEST: T1, human PAC1 receptor extracellular domain (ECD) (human, UniProt P41586 24-153)
- T1 construct: also called PAC1 receptor ECD; PAC1 ECD
- T1 sequence: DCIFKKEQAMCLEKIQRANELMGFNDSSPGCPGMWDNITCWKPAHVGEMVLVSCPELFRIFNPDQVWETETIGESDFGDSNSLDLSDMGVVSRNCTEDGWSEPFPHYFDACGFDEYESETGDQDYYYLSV
- PROTOCOL_DESCRIPTION: yeast-displayed Fab, FACS, 10 nM PAC1 receptor ECD
Measured Mutant vs. 4E4.2 Parent B/D Ratio, listed per entry.
A number alone suffices; assume fold.

{"BINDER": "anti-CGRP receptor variant 15, yeast-displayed Fab (Fab, V domains shown, also called Variant Ab ID 15) VH: QVQLVESGGGVVQPGRSLRLSCAASGFTFSSFGMHWVRQAPGKGLEWVAVISFDGSIKYSVDSVKGRFTISRDNSKNTLFLQMNSLRAEDTAVYYCARDRLNYYESSGYYHYKYYGMAVWGQGTTVTVSS VL: QSVLTQPPSVSAAPGQKVTISCSGSSSNIGNNYVSWYQQLPGTAPKLLIYDNNKRPSGIPDRFSGSKSGTSATLGITGLQTGDEADYYCGTWDWWRKAVIFGGGTKLTVLG", "UNITS_LABEL": "fold", "Mutant vs. 4E4.2 Parent B/D Ratio": 0.9}

Kindly review the next binder as well.
## Task Recorded Mutant vs. 4E4.2 Parent B/D Ratio for anti-CGRP receptor variant 06, yeast-displayed Fab (Fab, V domains shown, also called Variant Ab ID 06) VH: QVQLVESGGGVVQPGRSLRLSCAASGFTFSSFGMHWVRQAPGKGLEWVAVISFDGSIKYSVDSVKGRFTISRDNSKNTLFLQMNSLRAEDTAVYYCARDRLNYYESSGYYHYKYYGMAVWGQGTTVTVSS VL: QSVLTQPPSVSAAPGQKVTISCSGSYSNIGRKSVSWYQQLPGTAPKLLIYDNNKRPSGIPDRFSGSKSGTSATLGITGLQTGDEADYYCGTWDSRLSAVVFGGGTKLTVLG , please?
## Result 1
